Test system: MYB mRNA
Assay: RT-qPCR splicing assay, MYB mRNA canonical (CJ) and alternative (AJ) junction
Type: cell-based, human
Settings: Homo sapiens, MYB canonical junction mRNA, RT-qPCR; read-out: MYB CJ (decrease in CJ mRNA levels, IC50)
endpoint label: IC50

Take a look at these entries with their results.
1. Cc1c(O)c(-c2ccc3nc(N4CC[C@@H](NC5CC5)C4)ncc3n2)cc2cn(C)nc12: 100 to 1000 nM
2. CC(C)N[C@@H]1CCN(c2ccc3nc(-c4cc5cn(C)nc5cc4O)ccc3n2)C1: < 100 nM
3. Cc1nc2c(C)c(O)c(-c3ccc4nc(N5CC[C@H](NC(C)C)C5)ncc4n3)cc2o1: < 100 nM

Qu. Tell me reported IC50 for `C[C@H]1C[C@H](c2ccc3nc(-c4cc5cn(C)nc5cc4O)ccc3n2)CCN1` , tested with MYB mRNA.
Ans. < 100 nM

Qu. Form: Entry = `Cc1nc2c(F)c(O)c(-c3ccc4nc(N5CC[C@H](N[C@H]6C[C@@H](F)C6)C5)ccc4n3)cc2o1` | System = MYB mRNA | IC50 = ____
Ans. < 100 nM

Qu. GET /values?readout=IC50&system=MYB mRNA&item= Cc1c(O)c(-c2ccc3nc(N4CCC(NC5(C)CC5)C4)ccc3n2)cc2cn(C)nc12 (stereo not drawn)
Ans. < 100 nM

Qu. For the record Cn1cc2cc(-c3ccc4nc(N5CCC(N)C5)ccc4n3)c(O)c(F)c2n1 (stereo in doubt) [Compound 363] , what value of IC50 is listed for MYB mRNA?
Ans. < 100 nM

Qu. Reported IC50 for MYB mRNA, given `Cc1c(O)c(-c2nc(C(N)=O)c3cc(N4CCNCC4)ccc3n2)cc2cn(C)nc12` ?
Ans. < 100 nM

Qu. So what IC50 did `Cc1nc2c(F)c(O)c(-c3ccc4nc(N5CC[C@H](NC6CC6)C5)ccc4n3)cc2o1` get with MYB mRNA?
Ans. < 100 nM

Qu. Fill in the recorded IC50 for this compound, with MYB mRNA as test system: `Cn1cc2cc(-c3ccc4nc(C5CCNCC5)ccc4n3)c(C#N)cc2n1`
Ans. 1000 to 10000 nM

Qu. Reported IC50 for MYB mRNA, given `Cc1nc2cc(O)c(-c3ccc4nc(N5CCNCC5)ccc4n3)cc2o1` ?
Ans. 100 to 1000 nM

Qu. For the record `C[C@@H]1CN(c2ccc3nc(-c4cc5cn(C)nc5c(F)c4O)nc(-c4nccs4)c3c2)C[C@H](C)N1` , what value of IC50 is listed for MYB mRNA?
Ans. 1000 to 10000 nM
